- Measurement description: qHTS for Inhibitors of human tyrosyl-DNA phosphodiesterase 1 (TDP1): qHTS in cells in presence of CPT; also: nearly all actives have a fitted effect of over 55% in size
- Assay setup: chicken DT40 Tdp1-/-;hTDP1 cells + 20 nM CPT, ATP luminescence, 48 h; series mostly up to 46.2 µM
Screen size: about 420,000 compounds; about 50,000 (12%) were called active. Inconclusive results (about 26%) are left out. Calls follow the shape of the dose curve; as a rule, active = well fitted inhibition curve with a large enough effect; inconclusive = small, poorly fitted or top-dose-only effect; inactive = flat fitted curve, though single readings scatter. The sample holds actives, similar compounds and a random draw of the others, so the mix is not that of the screen.
Answer with one of the outcomes TRUE (active), FALSE (inactive)

Request: Give the logged outcome of this assay for the following molecule: Cc1cc(C)nc(NS(=O)(=O)c2ccc(N3C(=O)C4CCCCC4C3=O)cc2)n1 (stereo unspecified)
Result: FALSE

Request: Please give the result for Cc1ccc(C)c(S(=O)(=O)N2CCCOC2CNC(=O)C(=O)NC2CCCCC2)c1 (stereo unspecified) too.
Result: FALSE

Request: Please give the result for `O=C(COC(=O)/C=C/c1cccc(Cl)c1)NCc1cccs1` too.
Result: FALSE

Request: Please give the result for `N#Cc1ccccc1NC(=O)c1ccc2c(c1)OCO2` too.
Result: FALSE

Request: Please give the result for `CC1(C)Oc2ccc3ccc(=O)oc3c2/C(=N/O)C1=O` too.
Result: FALSE

Request: Please give the result for `CCCCn1c(SCc2ncc(-c3ccccc3)o2)nc2cc(S(N)(=O)=O)ccc21` too.
Result: TRUE

Recorded values, source PubChem BioAssay AID686979.
